# Assay method text: Aqueous solubility
# Measurement parameters: acidic aqueous media, aqueous buffer
Counter-ions that a name gives are not always drawn.
Readout: solubility

Q: May I ask what solubility has been recorded for NCCCC[C@H](N)C(=O)Oc1cc([N+](=O)[O-])ccc1-c1cc(=O)[nH]c2c(-c3ccc(Cl)cc3)c(Cc3ccccc3)nn12 [NAV-B, dihydrochloride] ?
Ans: > 50 mg/mL

----------
# Assay method text: Aqueous solubility
Readout: solubility

Q: May I ask what solubility has been recorded for Cc1ccc(-c2c[nH]c3c(-c4ccc(Cl)cc4)c(Cc4ccccc4)nn3c2=O)c(OP(=O)([O-])[O-])c1.[Na+].[Na+] [NAV-AAR′] ?
Ans: ≤ 50 mg/mL

----------
# Tested system: ARF6 (Homo sapiens)
# Sequence (P62330 whole entry, species assumed): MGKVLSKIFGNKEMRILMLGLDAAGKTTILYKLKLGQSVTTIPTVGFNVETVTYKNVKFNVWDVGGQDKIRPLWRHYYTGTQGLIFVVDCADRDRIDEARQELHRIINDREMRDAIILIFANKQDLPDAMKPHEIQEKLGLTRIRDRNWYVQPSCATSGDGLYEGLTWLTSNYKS
# Assay method text: ARF6 inhibition, biochemical fluorometric nucleotide exchange assay
# Measurement parameters: Table 2; read-out: ARF6 IC50
# From the text: These ARF6 inhibitors were discovered using a high-throughput biochemical, fluorometric nucleotide exchange assay to screen 100,000 compounds from a commercially available compound library. Medicinal chemistry optimization efforts have also been conducted. In some embodiments, the clinical potential of the discovered small molecule ARF6 inhibitors can be limited by poor solubility. Accordingly, the synthesis and development of water soluble prodrugs of ARF6 inhibitors can be advantageous. […]
Readout: pIC50
Answer as the number alone; pIC50 is minus log10 of concentration in mol/L.

INSERT INTO measurements (structure_as_smiles, readout, readout_value) VALUES
  ('O=c1c(-c2ccc(F)cc2OP(=O)([O-])[O-])c[nH]c2c(-c3ccc(Cl)cc3)c(Cc3ccccc3)nn12.[Na+].[Na+]', 'pIC50', 5.04);

--- query ---
Q: Query the reported pIC50 for ARF6 (Homo sapiens); item: Cc1ccc(-c2c[nH]c3c(-c4ccc(Cl)cc4)c(Cc4ccccc4)nn3c2=O)c(O)c1
Ans: 5.48

----------
# Tested system: ARF6 (Homo sapiens)
# Assay method text: ARF6 inhibition, biochemical fluorometric nucleotide exchange assay
# Measurement parameters: approximately; read-out: ARF6 IC50
# Text: These ARF6 inhibitors were discovered using a high-throughput biochemical, fluorometric nucleotide exchange assay to screen 100,000 compounds from a commercially available compound library. Medicinal chemistry optimization efforts have also been conducted. In some embodiments, the clinical potential of the discovered small molecule ARF6 inhibitors can be limited by poor solubility. Accordingly, the synthesis and development of water soluble prodrugs of ARF6 inhibitors can be advantageous. […]
Readout: IC50

Q: May I ask what IC50 has been recorded for Cc1ccc(-c2c[nH]c3c(-c4ccc(Cl)cc4)c(Cc4ccccc4)nn3c2=O)c(OP(=O)([O-])[O-])c1.[Na+].[Na+] [NAV-AAR′] ?
Ans: 1 to 2 µM
